Hey, just so you know, these numbers are from patent US4347371A.

Tested on: angiotensin I-converting enzyme
Experiment: Suppressive effect on the pressor response to angiotensin I in unanesthetized rats, oral administration (angiotensin I-converting enzyme inhibition)
Type: in vivo, Male Wistar strain rats
Conditions: dose 1.0 mg/kg oral, 65 min, rat; angiotensin I 300 ng/kg i.v.
measuredEndpoint: Inhibition (%) of pressor response to angiotensin I
Use % as the unit, but write only the number.

Some molecules with known Inhibition (%) of pressor response to angiotensin I results, for comparison:
{"columns": ["molecule", "recordedMeasurement"],
 "data": [
  ["C[C@H](CS)C(=O)N1CSC[C@H]1C(=O)O [Compound 43A, reference compound]", 30],
  ["O=C(O)[C@@H]1CSC(c2ccccc2O)N1C(=O)CCSSCCC(=O)N1C(c2ccccc2O)SC[C@H]1C(=O)O (some centres unmarked) [Compound 1]", 55],
  ["CC(=O)Oc1ccccc1C1SC[C@@H](C(=O)O)N1C(=O)CCSSCCC(=O)N1C(c2ccccc2OC(C)=O)SC[C@H]1C(=O)O (some centres unmarked) [Compound 3]", 55],
  ["CCCSSC[C@@H](C)C(=O)N1CSC[C@H]1C(=O)O [Compound 43]", 40]
]}

q: State, in one line, measured Inhibition (%) of pressor response to angiotensin I of O=C(O)[C@@H]1CSC(c2ccccc2O)N1C(=O)CCS (some centres unmarked) [Compound 1A, reference compound]
a: 35

q: State, in one line, measured Inhibition (%) of pressor response to angiotensin I of COc1ccc(C2SC[C@@H](C(=O)O)N2C(=O)[C@H](C)CS)cc1 (some centres unmarked) [Compound 37A, reference compound]
a: 20

q: State, in one line, measured Inhibition (%) of pressor response to angiotensin I of C=CCSSC[C@@H](C)C(=O)N1C(c2ccc(OC)cc2)SC[C@H]1C(=O)O (some centres unmarked) [Compound 37]
a: 35

q: State, in one line, measured Inhibition (%) of pressor response to angiotensin I of CCCSSCCC(=O)N1C(c2ccccc2O)SC[C@H]1C(=O)O (some centres unmarked) [Compound 34]
a: 55
